Biological target: DDX3 Helicase (Homo sapiens, UniProt O00571)
Sequence (O00571 whole entry): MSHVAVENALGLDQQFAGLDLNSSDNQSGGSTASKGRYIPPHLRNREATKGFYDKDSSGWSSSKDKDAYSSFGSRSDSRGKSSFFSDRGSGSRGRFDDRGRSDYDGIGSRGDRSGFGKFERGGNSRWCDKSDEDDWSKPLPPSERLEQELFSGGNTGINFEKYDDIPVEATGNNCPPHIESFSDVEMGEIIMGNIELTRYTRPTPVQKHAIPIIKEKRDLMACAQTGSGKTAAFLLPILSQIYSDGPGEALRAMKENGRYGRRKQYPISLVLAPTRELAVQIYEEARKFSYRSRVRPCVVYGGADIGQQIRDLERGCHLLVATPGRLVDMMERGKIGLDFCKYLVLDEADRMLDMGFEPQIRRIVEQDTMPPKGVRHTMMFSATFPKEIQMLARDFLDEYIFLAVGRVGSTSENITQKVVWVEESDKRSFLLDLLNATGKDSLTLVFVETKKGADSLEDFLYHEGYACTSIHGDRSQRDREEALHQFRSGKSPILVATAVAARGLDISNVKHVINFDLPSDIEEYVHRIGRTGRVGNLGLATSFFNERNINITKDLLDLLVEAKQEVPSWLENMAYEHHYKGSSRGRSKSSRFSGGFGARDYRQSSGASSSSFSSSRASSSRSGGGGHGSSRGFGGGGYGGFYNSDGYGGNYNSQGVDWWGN
Assay: biochemical
IC50 under 0.5 µM gets label 1, anything at or over 0.5 µM gets label 0.

Query :: Lab log: compare recorded IC50 with 0.5 µM; is it strictly lower for Cc1ccccc1NC(=O)Nc1ccc(-n2cc(CCO)nn2)cc1 [Compound 35b] ?
Result :: label 0

Query :: Also, CCCCc1nc(-c2cccc(S(=O)(=O)Nc3ccccc3C(F)(F)F)c2)no1 please.
Result :: label 0

Query :: // next record CCCCc1nc(-c2ccc(NC(=O)Nc3ccccc3C(F)(F)F)cc2)no1
Result :: label 1

Query :: What do we get for Cc1nc(Cl)c2ccccc2c1NC(=O)Nc1ccc(-n2cc(CCC(C)C)nn2)cc1 [Compound 55g] ?
Result :: label 0
